System: MALME-3M melanoma
method-summary: NCI tumour cell line growth inhibition, 48 h; in the data active = GI50 below about 0.43 µM; inactive = the rest
Assign a class; possible classes are True (active), False (inactive)

Asked: Hi, do you know how CNC(=O)OC1C(O[C@H]2C[C@H]3[C@@H]4CC=C5C[C@@H](O)CC[C@]5(C)[C@H]4CC[C@]3(C)[C@H]2[C@H](C)C(=O)CCC(C)C)OCC(O)C1OC1OCC(O)C(O)C1OC(=O)c1ccc(OC)cc1 (some centres undefined) came out in this test?
Given back: True

Asked: Hi, do you know how C[C@@H](Oc1ccc2[nH]nc(/C=C/c3cnn(CCO)c3)c2c1)c1c(Cl)cncc1Cl came out in this test?
Given back: False

Asked: Hi, do you know how CCCCCCCCCCCCCC(=O)C(C)N (centres undefined) came out in this test?
Given back: False

Asked: Hi, do you know how COc1ccc(/C=C/C(=O)c2cc3c(N)c(C(=O)Nc4ccccc4C)sc3nc2C)cc1 came out in this test?
Given back: True

Asked: Hi, do you know how O=C1c2ccn(CCCCN3CCCCC3)c2C(=O)c2c1c(O)c1ccccc1c2O came out in this test?
Given back: False

Asked: Hi, do you know how NC(=S)N/N=C\c1nccc2c(N)cccc12 came out in this test?
Given back: True

Asked: Hi, do you know how CC(=O)[C-](C(C)=O)c1ccccc1.CC(=O)[C-](C(C)=O)c1ccccc1.CC[O-].CC[O-].[Ti+4] came out in this test?
Given back: False

Asked: Hi, do you know how Cc1ccc2c(c1)O/C(=C\c1ccc([N+](=O)[O-])o1)C2=O came out in this test?
Given back: False

Asked: Hi, do you know how Cc1ccc(C2C3=C(N=c4s/c(=C/c5ccc(Br)cc5)c(=O)n42)c2ccc4ccccc4c2OCC3)cc1 (centres undefined) came out in this test?
Given back: False

###

Test system: SF-295 CNS
method-summary: NCI tumour cell line growth inhibition, 48 h
observable: TGI

Asked: Output TGI of COc1cc([C@@H]2c3cc4c(cc3[C@@H](c3c(O)cc(O)c5c3O[C@H](c3ccc(O)c(O)c3)[C@H](OC(=O)c3cc(O)c(O)c(O)c3)C5)[C@H]3COC(=O)[C@H]23)OCO4)cc(OC)c1OC
Given back: > 41.8 µM

Asked: Output TGI of COc1ccc(CC(NC(=O)[C@H](C)NC(=O)CN2CCOCC2)C(=O)N[C@@H](Cc2ccccc2)C(=O)[C@@]2(C)CO2)cc1 (stereo not given in full)
Given back: 0.587 µM

Asked: Output TGI of CC(C)(Oc1ccc2c(=O)cc(-c3ccccc3)oc2c1)C(=O)Nc1c(Cl)cccc1Cl
Given back: > 100 µM

Asked: Output TGI of C1=C(c2ccccc2)SC=C(c2ccccc2)S1
Given back: > 100 µM

Asked: Output TGI of CN(C)CC1(Cc2ccccc2)CCC(Cc2ccccc2)C1=O (stereo not given)
Given back: 31.2 µM

Asked: Output TGI of Cc1ccc(CC(Cc2ccc(C)cc2C(=O)O)C(=O)O)cc1 (stereo not given)
Given back: > 100 µM

Asked: Output TGI of COc1ccc(C(=O)N(C(=O)N2CCN(c3ccccc3)CC2)S(=O)(=O)c2ccccc2)cc1
Given back: > 100 µM

Asked: Output TGI of CCOC(=O)/C(C[C@H]1OC(C)(C)O[C@@H]1[C@H]1COC(C)(C)O1)=N/O
Given back: > 100 µM

Asked: Output TGI of CC(=O)N/N=C1/CC[C@@]2(C)C(=CC[C@H]3C4CCC(C(C)CCCC(C)C)[C@@]4(C)CCC32)C1(C)C (stereo not given in full)
Given back: > 100 µM

Asked: Output TGI of Cn1c2ccccc2n2c3ccccc3c(=O)c(C#N)c12
Given back: 55.1 µM

Asked: Output TGI of COc1ccc2c(c1)CCC1=C/C(=N\NC(N)=O)CCC12C (stereo not given)
Given back: > 10 µM

Asked: Output TGI of CN1CCN(c2ccc(NC3=C(Cl)C(=O)c4ncccc4C3=O)cc2C#N)CC1
Given back: 28.8 µM

Asked: Output TGI of O=S(=O)(O)c1cc(N=[N+]([O-])c2cc(S(=O)(=O)O)c3ccccc3c2)cc2ccccc12
Given back: > 100 µM

Asked: Output TGI of CN(/N=C\c1ccc2ccccc2c1)C1=NCCN1
Given back: 30.4 µM

Asked: Output TGI of C=CCC(N[C@H](CO)c1ccccc1)c1cn(S(=O)(=O)c2ccc(C)cc2)c2ccccc12 (stereo not given in full)
Given back: 34.8 µM

Asked: Output TGI of CCCCCCCCCCCCCC(=O)C(C)N (stereo not given)
Given back: 10 µM

Asked: Output TGI of CC1CN=C(NS(=O)(=O)c2cc(C(=O)Nc3ccc(F)cc3)c(Cl)cc2S)NN1 (stereo not given)
Given back: > 100 µM

Asked: Output TGI of CCSC1=N/C(=C/c2ccccc2O)C(=O)N1
Given back: > 100 µM

Asked: Output TGI of CC1(C)CC(=O)c2c(nc(SSc3nc4c(c(-c5ccc(Br)cc5)c3C#N)C(=O)CC(C)(C)C4)c(C#N)c2-c2ccc(Br)cc2)C1
Given back: > 10 µM

Asked: Output TGI of CC1(C)CC(=O)C(=[N+]=[N-])C(=O)C1
Given back: > 100 µM
